- targetOfAssay: D(1A) dopamine receptor (Bos taurus, UniProt Q95136)
- Sequence (Q95136 whole entry): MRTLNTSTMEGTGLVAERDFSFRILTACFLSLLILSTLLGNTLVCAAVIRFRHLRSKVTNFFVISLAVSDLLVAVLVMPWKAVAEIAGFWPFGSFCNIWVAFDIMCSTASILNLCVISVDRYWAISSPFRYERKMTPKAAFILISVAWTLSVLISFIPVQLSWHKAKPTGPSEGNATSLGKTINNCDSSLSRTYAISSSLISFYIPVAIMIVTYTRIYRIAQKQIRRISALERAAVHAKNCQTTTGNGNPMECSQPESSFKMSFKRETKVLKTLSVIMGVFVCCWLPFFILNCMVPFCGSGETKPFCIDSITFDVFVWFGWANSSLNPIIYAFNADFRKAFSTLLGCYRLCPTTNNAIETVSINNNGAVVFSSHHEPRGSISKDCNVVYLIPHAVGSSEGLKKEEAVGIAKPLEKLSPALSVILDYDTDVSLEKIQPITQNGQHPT
- test: Binding affinity against Dopamine receptor D1 from bovine striatal membranes using [3H]SCH-23390 as radioligand
attributeMeasured: log10(Ki) (log10 of the value in µM)
Values reflect log10 of reported Ki (µM).

// solved cases for log10(Ki) follow
smilesEntry	recordedMeasurement
N#Cc1ccc2[nH]c(CN3CCN(c4ccc(Cl)cc4)CC3)cc2c1	0.72
N#Cc1ccc2[nH]c(CN3CCN(c4ccc(F)cc4)CC3)cc2c1	0.93
N#Cc1ccc2cc(CN3CCN(c4ccccc4)CC3)[nH]c2c1	0.72
N#Cc1ccc2cc(CN3CCN(c4ccccc4Cl)CC3)[nH]c2c1	0.28
N#Cc1ccc2cc(CN3CCN(c4ccc(Cl)c(Cl)c4)CC3)[nH]c2c1	-0.06

Query molecule follows.
Prompt line: Give the measured log10(Ki) of N#Cc1ccc2[nH]c(CN3CCN(c4ccc(Cl)c(Cl)c4)CC3)cc2c1 .
Response line: 1.04

Where do the numbers come from? From ChEMBL document CHEMBL1133533.
